FYI, the data here is from the RepoRT retention time repository (doi:10.1038/s41586-021-03707-9).

Give measured LC retention time for each item. Keep answers brief.
Procedure Text: Waters ACQUITY UPLC BEH C18, 100 × 2.1 mm, 1.7 µm, 40 °C, 0.28 mL/min, estimated dead time 0.63 min; A: water + 6.5 mM ammonium hydroxide; B: methanol + 6.5 mM ammonium hydroxide; gradient (min/%B) 0/0.5 4/70 4.5/98 5.4/98
Test Settings: stereoisomer not certain
Give bare numbers, in min.

Look over these answered cases.
Compound	LC retention time / min
O=CC(O)C(O)C(O)CO (configuration not stated)	0.839
O=C(O)c1ccoc1	0.886
Cn1c(=O)[nH]c2ncn(C)c2c1=O	2.68
Nc1ncnc2c1ncn2C1OC(COP(=O)(O)OP(=O)(O)OC2OC(CO)C(O)C(O)C2O)C(O)C1O (configuration not stated)	0.917
Cc1cc2nc[nH]c2cc1C	4.93
NC(=O)Cc1c[nH]c2ccccc12	3.63

Each compound below has a recorded value; state its LC retention time.
1. CC(=O)OCC(N)C(=O)O (configuration not stated)
2. NC(=O)c1ncn(C2OC(CO)C(O)C2O)c1N (configuration not stated)
3. COc1cc(C(=O)O)cc(OC)c1O

Output line:
0.876
1.77
1.59
